method: Acute LD50 of compound was evaluated on L1210 leukemia in mice when administered intraperitoneally
Type: ADME, organism-based
conditions: mouse, in vivo, ip
assay_metric: LD50

# compound, LD50
records = [
    ("O=NN(CCCl)C(=O)NCCSSCCNC(=O)N(CCCl)N=O [DITIOMUSTINE]", "28 mg/kg"),
    ("O=NN(CCCl)C(=O)Oc1ccc([N+](=O)[O-])cc1", "17 mg/kg"),
]

Items follow; give LD50 for each.
1. O=NN(CCCl)C(=O)ON1C(=O)CCC1=O
2. CN(N=O)C(=O)ON1C(=O)CCC1=O

(A)
1. 36 mg/kg
2. 115 mg/kg

From: ChEMBL document CHEMBL1122009
